- system: PKG1α (h) (Homo sapiens)
- Construct: purchased Eurofins Pharma Discovery Services UK Ltd (contract assay service)
- Sequence (Q13976 1-671): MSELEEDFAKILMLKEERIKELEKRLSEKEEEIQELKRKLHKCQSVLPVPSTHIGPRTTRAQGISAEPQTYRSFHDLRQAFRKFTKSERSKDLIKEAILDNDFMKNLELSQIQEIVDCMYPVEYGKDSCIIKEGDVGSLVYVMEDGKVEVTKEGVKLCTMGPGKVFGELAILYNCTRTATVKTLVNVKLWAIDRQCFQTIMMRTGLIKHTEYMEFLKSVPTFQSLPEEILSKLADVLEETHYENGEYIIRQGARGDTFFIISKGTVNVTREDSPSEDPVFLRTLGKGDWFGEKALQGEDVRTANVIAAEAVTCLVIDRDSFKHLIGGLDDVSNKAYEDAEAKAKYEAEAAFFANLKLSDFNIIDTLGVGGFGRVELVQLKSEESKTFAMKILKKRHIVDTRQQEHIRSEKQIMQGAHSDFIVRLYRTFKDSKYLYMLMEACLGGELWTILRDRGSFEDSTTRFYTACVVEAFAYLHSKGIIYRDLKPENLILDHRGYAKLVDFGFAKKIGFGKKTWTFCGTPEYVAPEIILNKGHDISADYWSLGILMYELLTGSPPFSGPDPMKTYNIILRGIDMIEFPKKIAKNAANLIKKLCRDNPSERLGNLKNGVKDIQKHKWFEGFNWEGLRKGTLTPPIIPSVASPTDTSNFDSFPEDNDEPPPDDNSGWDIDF
- experiment-description: PKG1α kinase activity assay, cell free
- Assay type: biochemical
- test-context: cell free, 10 μM cGMP, 40 minutes at room temperature; read-out: PKG1α IC50
No end group written: not given here.
measured-parameter: pIC50
Quick note: pIC50 values are minus log10 of concentrations in mol/L.

RRRRRRRRRRRRRRRR-NH2 [IK01600, RRRRRRRRRRRRRRRR-NH2]
8.22

Next, consider the following substance.
Query string: Requested read-out: pIC50. Entry: RRRRRRRRRRRRRRRRRRRR-NH2 [IK00200]
Result string: 8.22

###

Each entry below lists one item and its recorded remaining at 4 h value.
- experiment-description: Resistance to simulated gastric fluid
- Type: in vitro ADME
- test-context: pig, simulated gastric fluid with porcine pepsin; simulated gastric fluid pH 2.01, 4 hrs; read-out: % of intact peptide observed
The answer is to be given in %; state only the numeric part.

N=C(N)NCCC[C@H](NC(=O)[C@H](CCCNC(=N)N)NC(=O)[C@H](CCCNC(=N)N)NC(=O)[C@H](CCCNC(=N)N)NC(=O)[C@H](CCCNC(=N)N)NC(=O)[C@H](CCCNC(=N)N)NC(=O)[C@H](CCCNC(=N)N)NC(=O)[C@H](CCCNC(=N)N)NC(=O)[C@H](CCCNC(=N)N)NC(=O)[C@H](CCCNC(=N)N)NC(=O)[C@H](CCCNC(=N)N)NC(=O)[C@H](CCCNC(=N)N)NC(=O)[C@H](CCCNC(=N)N)NC(=O)[C@@H](N)CCCNC(=N)N)C(N)=O [IK01400, RRRRRRRRRRRRRR-NH2]
98.5

Next, consider the following molecule.
Query string: Requested read-out: remaining at 4 h. Entry: N=C(N)NCCC[C@@H](N)C(=O)N[C@H](CCCNC(=N)N)C(=O)N[C@H](CCCNC(=N)N)C(=O)N[C@H](CCCNC(=N)N)C(=O)N[C@H](CCCNC(=N)N)C(=O)N[C@H](CCCNC(=N)N)C(=O)N[C@H](CCCNC(=N)N)C(=O)N[C@H](CCCNC(=N)N)C(=O)N[C@H](CCCNC(=N)N)C(=O)N[C@H](CCCNC(=N)N)C(=O)N[C@H](CCCNC(=N)N)C(=O)N[C@H](CCCNC(=N)N)C(=O)N[C@H](CCCNC(=N)N)C(=O)N[C@H](CCCNC(=N)N)C(N)=O [IKD01400, rrrrrrrrrrrrrr-NH2]
Result string: 98.7

###

Each entry below lists one item and its recorded IC50 value.
- system: c-Src (h) (Homo sapiens)
- Construct: purchased Eurofins Pharma Discovery Services UK Ltd (contract assay service)
- Sequence (P12931 whole entry): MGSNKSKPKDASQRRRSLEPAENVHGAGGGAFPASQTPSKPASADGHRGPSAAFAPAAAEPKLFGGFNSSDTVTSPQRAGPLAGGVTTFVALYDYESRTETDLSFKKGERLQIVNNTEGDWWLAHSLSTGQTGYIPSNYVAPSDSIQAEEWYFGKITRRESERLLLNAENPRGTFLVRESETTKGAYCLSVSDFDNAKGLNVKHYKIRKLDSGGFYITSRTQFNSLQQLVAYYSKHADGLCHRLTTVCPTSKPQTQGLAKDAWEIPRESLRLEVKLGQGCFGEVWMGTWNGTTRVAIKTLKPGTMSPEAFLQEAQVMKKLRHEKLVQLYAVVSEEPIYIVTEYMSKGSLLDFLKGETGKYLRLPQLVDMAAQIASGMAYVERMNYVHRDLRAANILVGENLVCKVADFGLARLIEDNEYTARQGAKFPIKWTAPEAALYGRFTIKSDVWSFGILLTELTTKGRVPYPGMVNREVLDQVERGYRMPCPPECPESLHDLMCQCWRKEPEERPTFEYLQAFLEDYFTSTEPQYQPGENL
- experiment-description: c-Src kinase activity assay, cell free
- Assay type: biochemical
Non-standard residues stand in square brackets, D forms with d. Residues, ends and D or L forms follow the SMILES beside them. Orn = NCCC[C@H](N)C(=O)O

N=C(N)NCCC[C@H](NC(=O)[C@H](CCCNC(=N)N)NC(=O)[C@H](CCCNC(=N)N)NC(=O)[C@H](CCCNC(=N)N)NC(=O)[C@H](CCCNC(=N)N)NC(=O)[C@H](CCCNC(=N)N)NC(=O)[C@H](CCCNC(=N)N)NC(=O)[C@H](CCCNC(=N)N)NC(=O)[C@H](CCCNC(=N)N)NC(=O)[C@H](CCCNC(=N)N)NC(=O)[C@H](CCCNC(=N)N)NC(=O)[C@H](CCCNC(=N)N)NC(=O)[C@H](CCCNC(=N)N)NC(=O)[C@@H](N)CCCNC(=N)N)C(N)=O
5.5 nM
N=C(N)NCCC[C@H](NC(=O)[C@H](CCCNC(=N)N)NC(=O)[C@H](CCCNC(=N)N)NC(=O)[C@H](CCCNC(=N)N)NC(=O)[C@H](CCCNC(=N)N)NC(=O)[C@H](CCCNC(=N)N)NC(=O)[C@H](CCCNC(=N)N)NC(=O)[C@H](CCCNC(=N)N)NC(=O)[C@H](CCCNC(=N)N)NC(=O)[C@H](CCCNC(=N)N)NC(=O)[C@H](CCCNC(=N)N)NC(=O)[C@H](CCCNC(=N)N)NC(=O)[C@H](CCCNC(=N)N)NC(=O)[C@@H](N)CCCNC(=N)N)C(=O)O [IK0140H, RRRRRRRRRRRRRR]
> 1000 nM

Next, consider the following molecule.
Query string: Requested read-out: IC50. Entry: NCCC[C@H](NC(=O)[C@H](CCCN)NC(=O)[C@H](CCCN)NC(=O)[C@H](CCCN)NC(=O)[C@H](CCCN)NC(=O)[C@H](CCCN)NC(=O)[C@H](CCCN)NC(=O)[C@H](CCCN)NC(=O)[C@H](CCCN)NC(=O)[C@@H](N)CCCN)C(N)=O [IKNOR10, OrnOrnOrnOrnOrnOrnOrnOrnOrnOrn-NH2, reference compound] (H-[Orn][Orn][Orn][Orn][Orn][Orn][Orn][Orn][Orn][Orn]-NH2; N-terminus assumed)
Result string: 7 nM

###

- system: PKG1α (h) (Homo sapiens, UniProt Q13976)
- Construct: purchased Eurofins Pharma Discovery Services UK Ltd (contract assay service)
- Sequence (Q13976 1-671): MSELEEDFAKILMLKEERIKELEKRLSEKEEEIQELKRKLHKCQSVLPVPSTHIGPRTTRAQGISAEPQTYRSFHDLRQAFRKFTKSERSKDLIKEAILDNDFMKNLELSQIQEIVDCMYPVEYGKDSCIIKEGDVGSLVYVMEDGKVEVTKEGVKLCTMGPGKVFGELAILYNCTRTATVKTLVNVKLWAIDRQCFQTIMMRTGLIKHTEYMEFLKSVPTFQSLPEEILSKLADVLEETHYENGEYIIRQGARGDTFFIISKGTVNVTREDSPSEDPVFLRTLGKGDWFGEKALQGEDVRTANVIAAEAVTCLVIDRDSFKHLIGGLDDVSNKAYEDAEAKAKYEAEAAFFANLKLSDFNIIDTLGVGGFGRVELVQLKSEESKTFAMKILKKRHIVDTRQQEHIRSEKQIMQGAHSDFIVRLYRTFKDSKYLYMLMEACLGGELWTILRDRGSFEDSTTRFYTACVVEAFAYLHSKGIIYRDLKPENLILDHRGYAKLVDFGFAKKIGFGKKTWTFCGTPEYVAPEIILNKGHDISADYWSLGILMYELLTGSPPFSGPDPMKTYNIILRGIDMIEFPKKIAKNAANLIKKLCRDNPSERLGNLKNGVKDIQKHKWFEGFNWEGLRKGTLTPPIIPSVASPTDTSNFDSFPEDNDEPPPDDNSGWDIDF
- experiment-description: PKG1α kinase activity assay, cell free
- Format: biochemical
Each entry below lists one item and its recorded pIC50 value.
Quick note: pIC50 values are minus log10 of concentrations in mol/L.

Query string: Requested read-out: pIC50. Entry: N=C(N)NCCC[C@H](NC(=O)[C@H](CCCNC(=N)N)NC(=O)[C@H](CCCNC(=N)N)NC(=O)[C@H](CCCNC(=N)N)NC(=O)[C@H](CCCNC(=N)N)NC(=O)[C@H](CCCNC(=N)N)NC(=O)[C@H](CCCNC(=N)N)NC(=O)[C@H](CCCNC(=N)N)NC(=O)[C@H](CCCNC(=N)N)NC(=O)[C@H](CCCNC(=N)N)NC(=O)[C@H](CCCNC(=N)N)NC(=O)[C@@H](N)CCCNC(=N)N)C(N)=O [IK01200, RRRRRRRRRRRR-NH2]
Result string: 8.10

Query string: Requested read-out: pIC50. Entry: N=C(N)NCCC[C@@H](N)C(=O)N[C@H](CCCNC(=N)N)C(=O)N[C@H](CCCNC(=N)N)C(=O)N[C@H](CCCNC(=N)N)C(=O)N[C@H](CCCNC(=N)N)C(=O)N[C@H](CCCNC(=N)N)C(=O)N[C@H](CCCNC(=N)N)C(=O)N[C@H](CCCNC(=N)N)C(=O)N[C@H](CCCNC(=N)N)C(=O)N[C@H](CCCNC(=N)N)C(=O)N[C@H](CCCNC(=N)N)C(=O)N[C@H](CCCNC(=N)N)C(=O)N[C@H](CCCNC(=N)N)C(=O)N[C@H](CCCNC(=N)N)C(N)=O [IKD01400, rrrrrrrrrrrrrr-NH2]
Result string: 7.96
